The measured values listed here are drawn from patent US20250263376A1.

system: primary melanocytes; test: Safety, MTT test in primary melanocytes; type: cell-based; details: 150 μM, 48 hours
measurement-kind: MTT, Primary melanocytes

Request: What value of MTT, Primary melanocytes has been reported for the following molecule? `O=C(/C=C/c1ccc(Cl)cc1)NCCO`
Result: 100.57 ± 2.18 % of solvent control

Request: What value of MTT, Primary melanocytes has been reported for the following molecule? `O=C(/C=C/c1ccc(Cl)cc1)NCCCCCO`
Result: 103.09 ± 1.79 % of solvent control

Request: What value of MTT, Primary melanocytes has been reported for the following molecule? `Cc1ccc(/C=C/C(=O)NCCCCCO)cc1`
Result: 99.89 ± 2.43 % of solvent control

Request: What value of MTT, Primary melanocytes has been reported for the following molecule? `O=C(/C=C/c1ccc(Cl)cc1)NCCCO`
Result: 97.02 ± 4.49 % of solvent control

Request: What value of MTT, Primary melanocytes has been reported for the following molecule? `O=C(/C=C/c1ccccc1)NCCCCCO`
Result: 101.88 ± 2.47 % of solvent control
